system: Escherichia coli TOP10; assay: shrunken log2 fold change of peptide-encoding DNA abundance (4.5 h post-induction vs induction); higher = less antimicrobial activity (less host growth inhibition); conditions: time post-induction: 4.5 h; library: site-saturation at positions 5, 18, 19, 20;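 further: peptides expressed intracellularly from a pBAD plasmid library in pooled LB shake-flask culture, induced with 0.3% L-arabinose, DNA abundance read by NGS, three biological replicates, DESeq2 with apeglm shrinkage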
Items are presented alongside their recorded shrunken log2 fold change.
Keep the answer to the number alone.

residue_string=RRIRTRPPRLPRPRPRPYQEPRP property_name="shrunken log2 fold change" meas_value=-0.182

## Task Data request, read-out shrunken log2 fold change, for RRIRARPPRLPRPRPRPMQHPRP
## Result 0.642

## Task Request the reported shrunken log2 fold change associated with RRIRARPPRLPRPRPRPVDEPRP
## Result 0.33

## Task # input sequence: RRIRDRPPRLPRPRPRPLLNPRP ; wanted: its shrunken log2 fold change
## Result 0.124

## Task Look up shrunken log2 fold change: RRIRIRPPRLPRPRPRPDDIPRP
## Result -0.151

## Task What does the data say about its shrunken log2 fold change? Entry: RRIRGRPPRLPRPRPRPLTEPRP
## Result 1.22
